Kindly supply the reported pKd values for the records listed here.
biological target: carbohydrate recognition domain of human galectin-3 (Galectin-3-CRD) (Homo sapiens)
Numbers only, as −log10 of the molar value.

Below are worked cases with known answers.
[2H]C([2H])([2H])OC1C(n2cc(-c3cc(F)c(F)c(F)c3)nn2)[C@@H](O)C(CO)O[C@H]1[C@H](OCc1ccc(Br)cc1)C(=O)NC1COC1 (stereo partly drawn)    7.74
CNC(=O)[C@@H](OCc1ccc(Cl)cc1)[C@@H]1OC(CO)[C@H](O)C(n2cc(-c3cc(F)c(F)c(F)c3)nn2)C1OC (stereo partly drawn) [Compound 84, reference compound]    7.74
COCCCNC(=O)[C@@H](OCc1ccc(Br)cc1)[C@@H]1OC(CO)[C@H](O)C(n2cc(-c3cc(F)cc(F)c3)nn2)C1O (stereo partly drawn)    7.68
COCCCNC(=O)[C@@H](OCc1ccc(Br)cc1)[C@@H]1OC(CO)[C@H](O)C(n2cc(-c3cc(F)c(F)c(F)c3)nn2)C1O (stereo partly drawn)    7.85
CC(C)NC(=O)[C@@H](OCc1ccc(Br)cc1)[C@@H]1OC(CO)[C@H](O)C(n2cc(-c3cc(F)c(F)c(F)c3)nn2)C1O (stereo partly drawn)    7.92

Okay, now this molecule:
Q: Quick one: pKd for [2H]C([2H])([2H])OC1C(n2cc(-c3cc(F)c(F)c(F)c3)nn2)[C@@H](O)C(CO)O[C@H]1[C@H](OCc1ccc(Br)cc1)C(=O)NC(C)(C)C (stereo partly drawn) ?
Ans: 7.34

###

Kindly supply the reported pKd values for the records listed here.
target: carbohydrate recognition domain of human galectin-3 (Galectin-3-CRD) (Homo sapiens, UniProt P17931)
Sequence (P17931 118-248 limits assumed): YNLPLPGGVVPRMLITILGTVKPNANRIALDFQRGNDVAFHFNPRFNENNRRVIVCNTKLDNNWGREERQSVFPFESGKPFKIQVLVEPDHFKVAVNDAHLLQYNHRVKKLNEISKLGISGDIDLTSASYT
Give bare numbers, as −log10 of the molar value.

[2H]C([2H])([2H])OC1C(n2cc(-c3cc(F)c(F)c(F)c3)nn2)[C@@H](O)C(CO)O[C@H]1[C@H](OCc1ccc(Br)cc1)C(=O)NC1(C)CC1 (some centres unmarked)    8.00

Dear colleague, could you please provide pKd for the compounds listed below?
1. COC1C(n2cc(-c3cc(F)c(F)c(F)c3)nn2)[C@@H](O)C(CO)O[C@H]1[C@H](OCc1ccc(Br)cc1)C(=O)OC(C)C (some centres unmarked)
2. COCCCNC(=O)[C@@H](OCc1ccc(Cl)cc1)[C@@H]1OC(CO)[C@H](O)C(n2cc(-c3cc(F)c(F)c(F)c3)nn2)C1OC (some centres unmarked) [Compound 85, reference compound]
3. COC1C(n2cc(-c3cc(F)c(F)c(F)c3)nn2)[C@@H](O)C(CO)O[C@H]1[C@H](OCc1ccc(Br)cc1)C(=O)N[C@@H](C)CF (some centres unmarked)
4. [2H]C([2H])([2H])OC1C(n2cc(-c3cc(F)c(F)c(F)c3)nn2)[C@@H](O)C(CO)O[C@H]1[C@H](OCc1ccc(Br)cc1)C(=O)NC(C)C (some centres unmarked)

Ans:
1: 7.92; 2: 7.92; 3: 8.05; 4: 8.05

Origin of the recorded values: patent US20240270724A1
